System: Escherichia coli TOP10;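 also: peptides expressed intracellularly from a pBAD plasmid library in pooled LB shake-flask culture, induced with 0.3% L-arabinose, DNA abundance read by NGS, three biological replicates, DESeq2 with apeglm shrinkage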
Assay: shrunken log2 fold change of peptide-encoding DNA abundance (4.5 h post-induction vs induction); higher = less antimicrobial activity (less host growth inhibition)
Conditions: time post-induction: 4.5 h; library: site-saturation at positions 5, 18, 19, 20
For each of the sequences below, state its shrunken log2 fold change.
# print the numeric value only

Note shrunken log2 fold change for the sequence shown: RRIRQRPPRLPRPRPRPNVAPRP
0.236

Provide one value: measured shrunken log2 fold change of RRIRHRPPRLPRPRPRPQPIPRP
-0.13

Answer with the recorded shrunken log2 fold change of RRIRARPPRLPRPRPRPKLHPRP only.
0.366

Provide measured shrunken log2 fold change value, entry: RRIRFRPPRLPRPRPRPWRDPRP
-0.136

Quick one: give measured shrunken log2 fold change for RRIRVRPPRLPRPRPRPFDPPRP
-0.0153

Supply shrunken log2 fold change value. Item: RRIRSRPPRLPRPRPRPRSDPRP
0.223

Please supply the value of reported shrunken log2 fold change for the item RRIRRRPPRLPRPRPRPRSVPRP
0.234

Please indicate shrunken log2 fold change recorded for RRIRPRPPRLPRPRPRPGIFPRP
0.0736

Tell me its shrunken log2 fold change given RRIRIRPPRLPRPRPRPTLWPRP as the entry.
0.22

Recall and state the measured shrunken log2 fold change for RRIRARPPRLPRPRPRPMQVPRP .
0.277

Please give measured shrunken log2 fold change of the following entry: RRIRNRPPRLPRPRPRPRGHPRP
0.347

Give recorded shrunken log2 fold change. RRIRCRPPRLPRPRPRPDFFPRP
0.035

Consider the sequence RRIRFRPPRLPRPRPRPHGRPRP . State its measured shrunken log2 fold change.
0.187

Provide measured shrunken log2 fold change value, entry: RRIRTRPPRLPRPRPRPWTKPRP
-0.00433

Kindly indicate its recorded shrunken log2 fold change. Item: RRIRHRPPRLPRPRPRPGELPRP
0.0143

Provide measured shrunken log2 fold change value, entry: RRIRERPPRLPRPRPRPWICPRP
-0.378

Determine from records and report shrunken log2 fold change for RRIRYRPPRLPRPRPRPTVAPRP
0.0691

// Input: RRIRGRPPRLPRPRPRPNANPRP . Output its shrunken log2 fold change only.
0.837

Identify the reported shrunken log2 fold change for the following entry. RRIRVRPPRLPRPRPRPFYKPRP
-0.502

Report measured shrunken log2 fold change; entry is RRIRWRPPRLPRPRPRPMYFPRP
-0.555

Please list shrunken log2 fold change recorded for the sequence RRIRVRPPRLPRPRPRPNAMPRP
-0.234

Complete the entry with shrunken log2 fold change for RRIRNRPPRLPRPRPRPMSSPRP
-0.123

Give recorded shrunken log2 fold change. RRIRFRPPRLPRPRPRPGDYPRP
-0.406

Recall and state the measured shrunken log2 fold change for RRIRDRPPRLPRPRPRPGSEPRP .
0.0708

Supply reported shrunken log2 fold change belonging to this sequence: RRIRSRPPRLPRPRPRPRFPPRP
0.198

Please indicate shrunken log2 fold change recorded for RRIRYRPPRLPRPRPRPHVEPRP
0.0184

Let me know recorded shrunken log2 fold change for RRIRLRPPRLPRPRPRPTKTPRP , thanks.
-0.0526

Fill in reported shrunken log2 fold change for this entry: RRIRHRPPRLPRPRPRPNKAPRP
0.147

Item RRIRSRPPRLPRPRPRPCLQPRP : provide shrunken log2 fold change
-0.197

Specify reported shrunken log2 fold change for the sequence shown: RRIRARPPRLPRPRPRPAVEPRP
0.666

Answer with the recorded shrunken log2 fold change of RRIRGRPPRLPRPRPRPHNHPRP only.
-0.27

State its shrunken log2 fold change: RRIRHRPPRLPRPRPRPMYLPRP
-0.412

Hello, the source for this data is the supplement of paper PMC9112550, in case you need it.
